This collection of values is drawn from ChEMBL document CHEMBL1156829.

CC50 by entry:
# protocolText: NOVARTIS: Cytotoxicity against human hepatocellular carcinoma cell line (Huh7)
# Type: toxicity, cell-based, Huh-7
# conditionParameters: Huh7 cells (hepatocellular carcinoma cell line)
Numbered stars: 1 amine (or outer) side, 2 acyl side, 3 side chain; on linkers, the order of the positions; unused ones are H or OH. Square brackets hold non-standard residues; d marks the D form. Peptide text beside a SMILES is read from it. * marks the point of attachment. X1 = CCC(=O)CC(O)C[C@@H](C)C[C@H](N[*:1])C(=O)[*:2]; Hexenoyl(2E,4S-Me) = CC[C@H](C)/C=C/C(=O)*; Leu(3R-OH) = CC(C)[C@@H](O)[C@H](N)C(=O)O; NH((S)CH(Me)CH2NMe2) = C[C@@H](CN(C)C)N*; Pro(4S-Me) = C[C@@H]1CN[C@H](C(=O)O)C1; Aib = CC(C)(N)C(=O)O; βAla = NCCC(=O)O

molecule	unitString	valueOperator	CC50
CCOc1ccc2[nH]c3c(NCCN(C)C)ncnc3c2c1	µM	=	32.5
CCC(=O)CC(O)C[C@@H](C)C[C@H](NC(=O)[C@@H]1C[C@H](C)CN1C(=O)/C=C/[C@@H](C)CC)C(=O)N[C@H](C(=O)NC(C)(C)C(=O)N[C@@H](CC(C)C)C(=O)N[C@@H](CC(C)C)C(=O)NC(C)(C)C(=O)NC(C)(C)C(=O)NCCC(=O)N[C@@H](C)CN(C)C)[C@H](O)C(C)C (stereo partly drawn) ({Hexenoyl(2E,4S-Me)}-[Pro(4S-Me)][X1][Leu(3R-OH)][Aib]LL[Aib][Aib][βAla]-{NH((S)CH(Me)CH2NMe2)})	µM	=	6.47
CC(C)CC(NC(=O)/C(=C\c1ccco1)NC(=O)c1ccccc1)C(=O)OCc1ccccc1 (stereo unspecified)	µM	>	10
COc1ccc(C2=C(c3ccc(OC)cc3)C3(c4ccccc4)C(=O)C2(c2ccccc2)C2C(=O)N(c4ccccc4[N+](=O)[O-])C(=O)C23)cc1 (stereo unspecified)	µM	>	100
O[C@H]1[C@H]2c3cc4c(cc3CN3CCC(=C[C@@H]1O)[C@H]23)OCO4	µM	=	66.1
N#CC(=Cn1cc(Cc2ccc(Cl)cc2Cl)c2ccccc21)c1nn(CCO)c(N)c1C#N	µM	=	75

====

# protocolText: NOVARTIS: Cytotoxicity against human hepatocellular carcinoma cell line (Huh7)
# Assay type: toxicity, cell-based, Huh-7
# conditionParameters: Huh7 cells (hepatocellular carcinoma cell line)
# CC50 per record follows
endpointName: CC50

>>> df
                                   compound  endpointname  recordedvalue
0           Cc1ccc(N2C(N)=NC(N)=NC2(C)C)cc1          CC50       > 100 µM
1        CCN1CCC(NCCC(c2ccccc2)c2ccccc2)CC1          CC50        3.61 µM
2  CCCOC(=O)C1=C(C)NC2=C(C(=O)CC(c3ccc(OC)c(OC)c3)C2)C1c1ccccc1Br (stereo not given)          CC50       > 100 µM
3  COc1ccc(C2=C(c3ccc(OC)cc3)C3(c4ccccc4)C(=O)C2(c2ccccc2)C2C(=O)N(c4cc(Cl)ccc4C)C(=O)C23)cc1 (stereo not given)          CC50       > 100 µM
4  CC(=O)N(C1=C(N2CCCCC2)C(=O)c2ccccc2C1=O)c1cccc(F)c1          CC50        23.7 µM
5  CCC(=O)N1CCc2cc(Br)cc(S(=O)(=O)N3CCCCC3CC)c21 (stereo not given)          CC50       > 100 µM
6    Clc1cccc(Nc2nc(NCc3ccco3)c3ccccc3n2)c1          CC50        16.1 µM
7  CCOC(=O)C(=O)N1c2ccc(OCC)cc2-c2c(ssc2=S)C1(C)C          CC50       > 100 µM
8   Nc1c(C(=O)NCc2ccccc2)nnn1Cc1ccc(F)cc1Cl          CC50        > 10 µM
9  CC(C)C1Oc2cc3oc(=O)ccc3cc2C1=NO (stereo not given)          CC50        > 10 µM

====

# protocolText: NOVARTIS: Cytotoxicity against human hepatocellular carcinoma cell line (Huh7)
# Format: toxicity, cell-based, Huh-7
# conditionParameters: Huh7 cells (hepatocellular carcinoma cell line)
endpointName: CC50

>>> df
                                    molecule  recordedvalue
 0  CC12CN3CC(C)(CN(C1)C3c1ccccc1)C2=O (configuration not stated)       > 100 µM
 1  c1ccc(Cn2c(N=NNc3nc4ccccc4n3Cc3ccccc3)nc3ccccc32)cc1        19.2 µM
 2   Cc1ccc(OCC(=O)Nc2cccc(C(=O)O)c2)c(Br)c1        > 10 µM
 3  CC(C)(C)CC(C)(C)Nc1c(-c2ccccc2OC(=O)c2ccccc2F)nc2ccccn12        > 10 µM
 4  CC(C)N(CC(=O)Nc1cc(C(C)(C)C)nn1-c1ccc(Cl)c(Cl)c1)C(=O)c1ccc(C(F)(F)F)cc1        > 10 µM
 5  O=C(Cn1c2ccccc2c(=O)c2ccc(Cl)cc21)Nc1ccc(C(F)(F)F)cc1       > 100 µM
 6          Cc1nc(N)sc1C(=O)NN=Cc1cccc(Br)c1        > 10 µM
 7             Fc1ccc(CSc2nc3cccnc3[nH]2)cc1       > 100 µM
 8  CC(=O)Nc1ccc(C(C)=NNc2nc(Nc3cc(C)ccc3C)nc(N3CCOCC3)n2)cc1        > 10 µM
 9  Cc1cccc(N2C(=O)C3C(C2=O)C2(c4ccccc4)C(=O)C3(c3ccccc3)C(c3ccccc3)=C2c2ccccc2)c1 (configuration not stated)       > 100 µM
10              N#CN=C(N)c1sc(Nc2ccccc2)nc1N        9.37 µM
11  COc1cccc2cc(-c3nc(-c4ccccc4)cs3)c(=O)oc12        > 10 µM
12  COc1ccc(-c2c[n+](Cc3ccc(Cl)cc3Cl)c3n2CCC3)cc1        31.8 µM
13  CCOc1ccc2c(c1)sc(=NC(=O)Nc1ccc(OC)cc1)n2C        17.8 µM
14  COc1ccc(C(=O)Nc2ccc(-c3nc4ccc(NC(=O)c5ccc(OC)cc5)cc4[nH]3)cc2)cc1        8.78 µM
15  COc1cc2c3c(c4cc(OC)c(OC)cc4c2cc1OC)CN1CCC[C@@H]1C3      > 7.91 µM
16  COc1ccc(-n2nc(C(=O)NCC(=O)NCCCN3CCOCC3)c3ccccc3c2=O)cc1Cl        > 10 µM
17  O=C1CC(c2ccccc2)CC2=C1C(c1ccccc1[N+](=O)[O-])Nc1ccccc1N2 (configuration not stated)       > 100 µM
18            CCOC(=O)c1cnc2ccc(C(C)C)cc2c1O       > 100 µM
19  O=C(N/C(=C/C=C/c1ccccc1)C(=O)N1CCCCC1)c1ccc([N+](=O)[O-])cc1        > 10 µM
20  COc1ccc(OC)c(-c2ccc(O)c(CNC3CCCCC3)c2)c1        > 10 µM
21      Nc1ccc2[nH]c(/C=C/c3ccc(Cl)cc3)nc2c1        > 10 µM
22      CN(C)c1cc(NC(=O)Nc2ccccc2)c2ccccc2n1        6.78 µM
23  Cc1nc(N2CCCCC2)c2c(C)c(C(=O)N3CCN(c4cccc(Cl)c4)CC3)sc2n1       > 100 µM
24  COc1ccc(-c2cnc3ccc(NCc4cccc(Cl)c4)nn23)cn1        68.9 µM
25  CCC(c1ccc(F)cc1)n1cc(C(=O)NCCCN2CCC(C)CC2)nn1 (configuration not stated)        > 10 µM
26    c1ccc(C[n+]2ccc(-c3nc4ccccc4s3)cc2)cc1       > 100 µM
27             COCCCNC(=O)C=Cc1ccc(C(C)C)cc1       > 100 µM
28  COc1cc(C(=O)/C=C/Nc2ccc(N(C)C)cc2)cc(OC)c1OC        > 10 µM
29  C=C[C@H]1CN2CC[C@H]1C[C@H]2[C@H](OC(=O)CCC)c1ccnc2ccccc12        > 10 µM
30  CCC(=O)N1CCc2cc(S(=O)(=O)N3CCN(c4cccc(C(F)(F)F)c4)CC3)ccc21        > 10 µM
31  CCc1ccc2[nH]c(=O)c(CN(CCN(CC)CC)C(=S)NCCCN(C)C)cc2c1        38.2 µM
32     Fc1ccc(CSc2ccc3nnc(-c4cccnc4)n3n2)cc1        > 10 µM
33  CC(C)CC(N)C(=O)N1CCc2nc(Cc3ccc(F)cc3Cl)sc2C1 (configuration not stated)        > 10 µM
34    Cc1ccc(-c2cn3c([n+]2-c2ccccc2)SCC3)cc1       > 100 µM
35  CCc1ccc2[nH]c(=O)c(CN(Cc3ccc(OC)cc3)C(=S)NCCCN(CC)CC)cc2c1        18.2 µM
36    O=C(/C=C/c1cccnc1)C12CC3CC(CC(C3)C1)C2        > 10 µM
37  O=C(Nc1cc(C(F)(F)F)cc(C(F)(F)F)c1)Nc1ccc(Cl)c(Cl)c1        6.57 µM
38  CC(C)=CCC/C(C)=C/CCC(C)NCCN1CCNCC1 (configuration not stated)        > 10 µM
39  Cc1cc(-c2ccc(O)c(CN3CCCCC3CO)c2)c2ccccc2n1 (configuration not stated)        59.1 µM
40  CCCCCCCCN[C@@H](C)[C@@H](O)c1ccc(SC(C)C)cc1      > 6.25 µM
41  Cc1noc(C)c1S(=O)(=O)N(Cc1ccccc1)CC(O)CN1CCC(NC(=O)c2cccc3ccccc23)C1 (configuration not stated)        > 10 µM
